Where a name gives a salt, the structure may show the parent alone.
// reported melting point for each item listed

Worked set:
>  <Compound>
CC(C)=CCC/C(C)=C/C(=O)NCCNC1C2CC3CC(C2)CC1C3.Cl (stereo not shown)

>  <melting point>
150 to 164 °C

$$$$
>  <Compound>
CCS(=O)(=O)N(C/C=C(\C)CCC=C(C)C)CCN.Cl

>  <melting point>
103 to 106 °C

$$$$
>  <Compound>
CC(C)=CCC/C(C)=C/CN(CCN)S(=O)(=O)c1ccc(C)cc1.Cl

>  <melting point>
134 to 137 °C

$$$$
>  <Compound>
CC(C)=CCC/C(C)=C/CN(CCN(C(=O)c1c[nH]c2ccccc12)C1C2CC3CC(C2)CC1C3)C(=O)c1c[nH]c2ccccc12 (stereo not shown)

>  <melting point>
248 to 252 °C

$$$$
>  <Compound>
CC(C)=CCC/C(C)=C/CN(CCNC1C2CC3CC(C2)CC1C3)S(=O)(=O)c1ccc(C)cc1.Cl (stereo not shown)

>  <melting point>
179 to 182 °C

$$$$

Asked: // query melting point value for entry CCCCCCNCCNC1C2CC3CC(C2)CC1C3 (stereo not shown) (as salt: hydrochloride) [XHJ-5-5, dihydrochloride]
Given back: 212 to 216 °C

Asked: Field request: melting point | item: CC(C)=CCC/C(C)=C/CNCC(=O)NC1C2CC3CC(C2)CC1C3.Cl (stereo not shown)
Given back: 168 to 172 °C

Asked: What measured melting point goes with CCCCCCCCNCCNC1C2CC3CC(C2)CC1C3 (stereo not shown) (as salt: hydrochloride) [XHJ-5-3, dihydrochloride] ?
Given back: 224 to 226 °C

Asked: // query melting point value for entry CC(C)=CCC/C(C)=C/CN(CCN)C1C2CC3CC(C2)CC1C3 (stereo not shown)
Given back: 102 to 104 °C

Asked: Recorded melting point for C(CNC1C2CC3CC(C2)CC1C3)NC1CC1 (stereo not shown) , please?
Given back: 197 to 200 °C

* * *

# Test system: Mycobacterium tuberculosis standard strain H37Rv
# Protocol details: Microplate Alamar Blue Assay (MABA), minimum inhibitory concentration
# Type: cell-based
# Condition set: experimental data in Table 1
Structures can show the parent of a compound that is named as a salt.
Quantity measured: in vitro anti-tuberculosis activity (in words)

>  <Compound>
CC(C)=CCC/C(C)=C/CNCCNC(c1ccccc1)c1cccnc1 (stereo not drawn)

>  <Target under test>
Mycobacterium tuberculosis standard strain H37Rv

>  <Result>
better activity

$$$$
>  <Compound>
CCS(=O)(=O)N(C/C=C(\C)CCC=C(C)C)CCNC1C2CC3CC(C2)CC1C3.Cl (stereo not drawn)

>  <Target under test>
Mycobacterium tuberculosis standard strain H37Rv

>  <Result>
good activity

$$$$
>  <Compound>
CC(C)=CCC/C(C)=C/CN(CCNC1C2CC3CC(C2)CC1C3)S(=O)(=O)c1ccc(C)cc1.Cl (stereo not drawn)

>  <Target under test>
Mycobacterium tuberculosis standard strain H37Rv

>  <Result>
good activity

$$$$
>  <Compound>
CC(C)=CCC/C(C)=C/CN(CCN)C1C2CC3CC(C2)CC1C3 (stereo not drawn)

>  <Target under test>
Mycobacterium tuberculosis standard strain H37Rv

>  <Result>
better activity

$$$$
>  <Compound>
CC(C)=CCC/C(C)=C/CNCC(=O)NC1C2CC3CC(C2)CC1C3.Cl (stereo not drawn)

>  <Target under test>
Mycobacterium tuberculosis standard strain H37Rv

>  <Result>
good activity

$$$$

Asked: Look up in vitro anti-tuberculosis activity (in words): CC(C)=CCC/C(C)=C/CNCCNC(c1ccccn1)c1ccccn1
Given back: better activity

Asked: Which in vitro anti-tuberculosis activity (in words) value is on record for CCCCCCCCNCCNC1C2CC3CC(C2)CC1C3 (stereo not drawn) [XHJ-5-3, dihydrochloride] ?
Given back: better activity

Asked: Query: in vitro anti-tuberculosis activity (in words); subject: CC(C)=CCC/C(C)=C/CN(CCNC1C2CC3CC(C2)CC1C3)C(=O)CCc1c[nH]c2ccccc12 (stereo not drawn)
Given back: good activity

Asked: Entry under review: CCCCCCCCCCC(=O)N(C/C=C(\C)CCC=C(C)C)CCNC1C2CC3CC(C2)CC1C3 (stereo not drawn) . Reported in vitro anti-tuberculosis activity (in words)?
Given back: good activity

Asked: So what's the measured in vitro anti-tuberculosis activity (in words) for this one? COc1cc(C(=O)N(C/C=C(\C)CCC=C(C)C)CCNC2C3CC4CC(C3)CC2C4)cc(OC)c1OC (stereo not drawn)
Given back: good activity

Asked: What does the record list as in vitro anti-tuberculosis activity (in words) for CCCCCCNCCNC1C2CC3CC(C2)CC1C3 (stereo not drawn) [XHJ-5-5, dihydrochloride] ?
Given back: better activity

Asked: Entry CC(C)=CCC/C(C)=C/C(=O)NCCNC1C2CC3CC(C2)CC1C3.Cl (stereo not drawn) has what in vitro anti-tuberculosis activity (in words)?
Given back: good activity
